Listing of IC50 toward Serine/threonine-protein kinase PLK1 (Homo sapiens), each taken from a published source.

[in] // query IC50 value for entry CN1CCC(NS(=O)(=O)c2ccc(Nc3ncc4c(n3)N(C3CCCC3)CC(C)(C)C(=O)N4C)cc2)CC1
[out] 500 to 5000 nM

[in] // query IC50 value for entry COc1cc2ncn(-c3nc(-c4ccc5c(c4)OCO5)c(C(=O)O)s3)c2cc1OC
[out] 125 nM

[in] // query IC50 value for entry CN(C)CC(C)(C)CNC(=O)c1ccc(-c2c(F)cnc3[nH]c4cnc(-c5cccnc5)cc4c23)cc1
[out] 100 to 1000 nM

[in] // query IC50 value for entry O=S(=O)(Cc1cccc(Cl)c1)NCc1c[nH]c2ncccc12
[out] ≤ 10000 nM

[in] // query IC50 value for entry CS(=O)(=O)NCc1cccc(-c2c(F)cnc3[nH]c4cnc(-c5cccnc5)cc4c23)c1
[out] 1 to 100 nM

[in] // query IC50 value for entry COc1cc2nccc(Oc3ccc(NC(=O)c4cc(S(C)(=O)=O)n(-c5ccc(F)cc5)n4)cc3)c2cc1OC
[out] ≥ 10000 nM

[in] // query IC50 value for entry CC[C@@H]1C(=O)N(C)c2cnc(-c3n[nH]cc3-c3ccccc3)nc2N1C1CCCC1
[out] < 1000 nM

[in] // query IC50 value for entry COc1cc(C(=O)O)ccc1Nc1ncc2c(n1)N(C1CCCC1)C(C)CC(=O)N2C (racemic)
[out] 500 to 5000 nM

[in] // query IC50 value for entry CC[C@@H]1C(=O)N(C)c2ccc(Nc3ccc(C(=O)NC4CCN(C)CC4)cc3OC)nc2N1C1CCCC1
[out] 1870 nM

[in] // query IC50 value for entry CC[C@@H]1C(=O)N(C)c2cnc(-n3ccnc3-c3ccncc3)nc2N1C1CCCC1
[out] < 1000 nM

[in] // query IC50 value for entry COc1cnc2[nH]c3cnc(-c4cnn(CC(=O)NCCN(C)C)c4)cc3c2c1
[out] > 5000 nM

[in] // query IC50 value for entry Fc1cnc2[nH]c3cnc(-c4ccsc4)cc3c2c1
[out] 1000 to 5000 nM

[in] // query IC50 value for entry CC[C@@]12CCCN1c1nc(-n3ccnc3-c3ccccc3)ncc1N(C)C2=O
[out] 10000 to 50000 nM

[in] // query IC50 value for entry CC[C@@H]1C(=O)N(C)c2cnc(-n3ccnc3-c3cncnc3)nc2N1C1CCCC1
[out] < 1000 nM

[in] // query IC50 value for entry CN1CCC(NC(=O)c2ccc(-c3c(F)cnc4[nH]c5cnc(-c6cnn(C)c6Cl)cc5c34)cc2)CC1
[out] > 5000 nM

[in] // query IC50 value for entry CC[C@@H]1C(=O)N(C)c2cnc(-n3ccnc3-c3ccc(F)cc3)nc2N1c1ccn(C)n1
[out] 1000 to 10000 nM

[in] // query IC50 value for entry CCCNC(=O)c1ccc(Nc2ncc3c(n2)N(C2CCCCC2)CCC(=O)N3)c(OC)c1
[out] > 5000 nM

* * *

Listing of pIC50 toward Serine/threonine-protein kinase PLK1 (Homo sapiens), each taken from a published source.
pIC50: −log10 of the molar value.

[in] What pIC50 appears in the records for this molecule with Serine/threonine-protein kinase PLK1 (Homo sapiens)? COc1cc(C(=O)NC2CCN(C)CC2)ccc1Nc1ncc2c(n1)N(C(C)C)CCC(=O)N2C
[out] > 6.30

[in] What pIC50 appears in the records for this molecule with Serine/threonine-protein kinase PLK1 (Homo sapiens)? CC[C@@]12COCCN1c1nc(-c3cn[nH]c3-c3nccs3)ncc1N(C)C2=O
[out] < 4.30

[in] What pIC50 appears in the records for this molecule with Serine/threonine-protein kinase PLK1 (Homo sapiens)? O=C(NCC#Cc1cnc2nc1NCCCNS(=O)(=O)c1cccc(c1)N2)Nc1cccc(C(F)(F)F)c1
[out] < 5.00

[in] What pIC50 appears in the records for this molecule with Serine/threonine-protein kinase PLK1 (Homo sapiens)? COc1cc(C(=O)N2CCCCC2)ccc1Nc1ncc2c(n1)N(C1CCCCC1)CCC(=O)N2
[out] < 5.30

[in] What pIC50 appears in the records for this molecule with Serine/threonine-protein kinase PLK1 (Homo sapiens)? CC[C@@H]1C(=O)N(C)c2cnc(Oc3ccc(C(=O)NC4CCN(C)CC4)cc3OC)nc2N1C1CCCC1
[out] < 5.00

[in] What pIC50 appears in the records for this molecule with Serine/threonine-protein kinase PLK1 (Homo sapiens)? Cn1cc(-c2cc3c(cn2)[nH]c2ncc(F)c(-c4ccc(C(N)=O)cc4)c23)cn1
[out] 6.00 to 7.00

[in] What pIC50 appears in the records for this molecule with Serine/threonine-protein kinase PLK1 (Homo sapiens)? CN1CCC2(CCN(C(=O)c3ccc(-c4c(F)cnc5[nH]c6cnc(-c7cccnc7)cc6c45)cc3)C2)C1 (centres unmarked)
[out] 5.30 to 6.00

[in] What pIC50 appears in the records for this molecule with Serine/threonine-protein kinase PLK1 (Homo sapiens)? CC[C@@H]1C(=O)N(C)c2cnc(-n3ccnc3-c3cn[nH]c3)nc2N1C1CCCC1
[out] > 6.00
